test system: Bacteroides clarus; experiment: growth AUC relative to DMSO control (median of replicates) (fraction); higher = more growth (less inhibition), active = hit call of the paper; conditions: 20 µM; 24 h
Please note: 1.0 applies when growth AUC is 1 or greater, and 0.0 applies otherwise.

molecule=CNC(=O)N(C)c1nnc(C(C)(C)C)s1 assayed_system="Bacteroides clarus" qualitative_label=0.0
molecule=Cc1ccc(-c2c(Cl)nc(C#N)n2S(=O)(=O)N(C)C)cc1 assayed_system="Bacteroides clarus" qualitative_label=0.0
molecule=COc1ccccc1N assayed_system="Bacteroides clarus" qualitative_label=1.0
molecule=CCOCn1c(-c2ccc(Cl)cc2)c(C#N)c(Br)c1C(F)(F)F assayed_system="Bacteroides clarus" qualitative_label=0.0
molecule=N#Cc1c(Cl)c(Cl)c(Cl)c(C#N)c1Cl assayed_system="Bacteroides clarus" qualitative_label=0.0

Shift focus to the following entry.
Asked: Is reported growth AUC greater than or equal to 1 here: CNC(=O)O/N=C/C(C)(C)S(C)(=O)=O
Given back: 0.0
